Parameter log10 Ki: see the listing below.
- TARGET_UNDER_TEST: cloned human H3 receptors (Homo sapiens)
- Construct: expressed in transfected cells
- Sequence (Q9Y5N1 whole entry): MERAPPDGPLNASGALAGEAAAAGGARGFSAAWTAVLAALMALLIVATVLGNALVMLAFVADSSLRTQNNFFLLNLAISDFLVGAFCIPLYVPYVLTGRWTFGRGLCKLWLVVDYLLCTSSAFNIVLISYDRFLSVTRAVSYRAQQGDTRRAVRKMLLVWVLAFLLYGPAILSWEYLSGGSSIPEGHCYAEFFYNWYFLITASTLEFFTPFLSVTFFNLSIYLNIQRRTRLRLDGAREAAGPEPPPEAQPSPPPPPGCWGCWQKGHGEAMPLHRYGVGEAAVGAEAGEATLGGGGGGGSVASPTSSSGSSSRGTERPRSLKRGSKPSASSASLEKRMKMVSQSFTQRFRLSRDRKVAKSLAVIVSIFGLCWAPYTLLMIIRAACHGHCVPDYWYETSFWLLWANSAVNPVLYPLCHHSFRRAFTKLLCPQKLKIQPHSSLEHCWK
- ASSAY_PROCEDURE: H3 Receptor Binding (Human)
- CONDITION_SUMMARY: cloned human H3 receptors stably expressed in SK-N-MC cells; average of the results obtained; read-out: Human H3 Ki
Each number you see is log10 of Ki, and the unit inside the log is nM.

Example entries and their recorded answers appear below.
>  <COMPOUND>
CSc1ccc(Oc2ccc(C(=O)N3CCCN(C4CC4)CC3)nc2C#N)cc1

>  <NUMERIC_VALUE>
1.32

$$$$
>  <COMPOUND>
O=C(c1ccc(Oc2ccccc2)nc1)N1CCCN(C2CC2)CC1

>  <NUMERIC_VALUE>
0.78

$$$$

Query: Record O=C(c1ccc(Oc2ccccc2F)nc1)N1CCCN(C2CCC2)CC1 : what is its log10 Ki with cloned human H3 receptors (Homo sapiens)?
Result: 0.00

Query: Record CSc1ccc(Oc2ccc(C(=O)N3CCCN(C(C)C)CC3)cn2)cc1C : what is its log10 Ki with cloned human H3 receptors (Homo sapiens)?
Result: 1.08

Entry source: patent US8940731B2
